- study target: Nav 1.7 (Homo sapiens)
- Construct: expressed in transfected cells
- Sequence (Q15858 whole entry): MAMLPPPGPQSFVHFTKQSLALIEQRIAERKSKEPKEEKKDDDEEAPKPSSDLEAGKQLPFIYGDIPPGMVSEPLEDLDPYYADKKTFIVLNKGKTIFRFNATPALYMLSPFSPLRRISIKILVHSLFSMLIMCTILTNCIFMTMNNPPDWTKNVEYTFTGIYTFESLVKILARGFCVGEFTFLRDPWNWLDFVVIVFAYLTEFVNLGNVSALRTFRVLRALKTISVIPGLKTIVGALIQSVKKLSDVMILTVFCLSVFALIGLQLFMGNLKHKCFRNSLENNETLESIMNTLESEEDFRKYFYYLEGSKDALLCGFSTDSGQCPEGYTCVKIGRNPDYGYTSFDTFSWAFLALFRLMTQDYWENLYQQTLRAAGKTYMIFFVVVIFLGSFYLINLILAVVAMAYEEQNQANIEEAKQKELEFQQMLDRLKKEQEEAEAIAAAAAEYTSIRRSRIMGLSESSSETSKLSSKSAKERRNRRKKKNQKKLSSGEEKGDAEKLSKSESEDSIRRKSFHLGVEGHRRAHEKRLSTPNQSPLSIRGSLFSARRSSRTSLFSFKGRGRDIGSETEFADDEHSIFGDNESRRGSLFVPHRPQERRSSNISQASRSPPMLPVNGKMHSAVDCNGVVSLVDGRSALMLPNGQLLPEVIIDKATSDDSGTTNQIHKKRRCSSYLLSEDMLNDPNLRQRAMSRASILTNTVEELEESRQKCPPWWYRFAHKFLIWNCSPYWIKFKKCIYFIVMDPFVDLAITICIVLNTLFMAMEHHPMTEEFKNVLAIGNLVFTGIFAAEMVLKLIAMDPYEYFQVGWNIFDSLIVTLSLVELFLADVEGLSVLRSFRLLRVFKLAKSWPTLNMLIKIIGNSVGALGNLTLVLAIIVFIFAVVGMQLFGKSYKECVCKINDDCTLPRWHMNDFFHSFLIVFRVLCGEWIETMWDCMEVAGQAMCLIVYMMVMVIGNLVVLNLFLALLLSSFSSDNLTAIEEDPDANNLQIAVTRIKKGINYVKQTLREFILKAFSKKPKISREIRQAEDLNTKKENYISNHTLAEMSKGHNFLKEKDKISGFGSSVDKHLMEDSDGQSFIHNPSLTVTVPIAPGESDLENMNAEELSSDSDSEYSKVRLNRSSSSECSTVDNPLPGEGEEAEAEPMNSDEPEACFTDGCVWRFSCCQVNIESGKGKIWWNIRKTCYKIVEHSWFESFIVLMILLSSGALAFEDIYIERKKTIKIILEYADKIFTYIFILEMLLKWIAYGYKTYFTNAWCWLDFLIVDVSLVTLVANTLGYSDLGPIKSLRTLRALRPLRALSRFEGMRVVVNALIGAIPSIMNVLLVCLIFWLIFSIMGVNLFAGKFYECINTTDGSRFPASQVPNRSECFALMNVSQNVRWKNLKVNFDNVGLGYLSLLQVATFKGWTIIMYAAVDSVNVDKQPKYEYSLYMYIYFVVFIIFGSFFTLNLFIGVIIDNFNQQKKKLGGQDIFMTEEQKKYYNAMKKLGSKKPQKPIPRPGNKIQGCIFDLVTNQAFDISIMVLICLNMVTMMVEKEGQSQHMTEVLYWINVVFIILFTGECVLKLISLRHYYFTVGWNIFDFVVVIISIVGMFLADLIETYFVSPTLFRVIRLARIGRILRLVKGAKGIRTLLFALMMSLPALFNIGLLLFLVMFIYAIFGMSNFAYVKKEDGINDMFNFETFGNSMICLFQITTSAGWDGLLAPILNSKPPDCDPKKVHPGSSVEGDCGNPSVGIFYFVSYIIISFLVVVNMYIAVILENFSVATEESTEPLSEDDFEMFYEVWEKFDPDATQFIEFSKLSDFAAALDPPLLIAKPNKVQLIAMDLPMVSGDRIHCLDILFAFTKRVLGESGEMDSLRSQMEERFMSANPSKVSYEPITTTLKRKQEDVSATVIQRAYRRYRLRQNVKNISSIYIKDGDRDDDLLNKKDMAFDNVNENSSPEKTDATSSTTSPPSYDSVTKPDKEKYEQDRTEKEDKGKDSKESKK
- method notes: Nav 1.7 activity in Table of Examples, no platform marker printed
- Type: cell-based
- recorded conditions: no marker a/b/c printed in the cell
measured property: pIC50
For clarity, pIC50 is expressed as the negative log10 of concentration in mol/L.

Q: Looking for the measured pIC50 of CN(c1ccccc1)c1nc(N)nc(-c2noc(-c3ccc(COCC(F)(F)F)nc3)n2)n1 , can you help?
A: 7.14

###

- study target: Nav 1.7 (Homo sapiens)
- Construct: expressed in transfected cells
- method notes: Whole-cell voltage clamp electrophysiology, automated patch clamp (marker c in Table of Examples)
- Type: cell-based
- recorded conditions: marker c = Automated patch clamp data; read-out: Nav 1.7 activity
measured property: IC50 (nM)
Hi! Could you send only the number? It should be in nM, unit omitted.

Q: // query IC50 value for entry CN(c1ccccc1)c1nc(N)nc(-c2noc(C(=O)N3C[C@@H]4[C@@H](COCCC(F)(F)F)[C@@H]4C3)n2)n1
A: 1290

Q: Same for Nc1nc(Nc2ccccc2)nc(-c2noc(C(=O)NC3CCC3)n2)n1
A: 401

Q: Next entry: CN(c1ccccc1)c1nc(N)nc(-c2noc(N3Cc4cncnc4C3)n2)n1
A: 6450

Q: Entry CN(c1ccccc1)c1nc(N)nc(-c2noc(C3CCN(S(=O)(=O)C4CC4)CC3)n2)n1 please
A: 7100

Q: Another: COc1cccc(-c2nc(-c3nc(N)nc(N(C)c4ccccc4)n3)no2)n1
A: 567

Q: Next: CC(OCC(F)(F)F)c1ccc(-c2nc(-c3nc(N)nc(N(C)c4ccccc4)n3)no2)nc1 (centres unmarked)
A: 56

Q: Also CN(c1ccc(F)cc1)c1nc(N)nc(-c2noc(-c3ncccc3F)n2)n1 ?
A: 289

Q: // next record CC(C)Oc1cccnc1-c1nc(-c2nc(N)nc(N(C)c3ccccc3)n2)no1
A: 695

Q: Entry CN(c1ccccc1)c1nc(N)nc(-c2noc(-c3ccc(C(=O)NCC4CC4)nc3)n2)n1 please
A: 1140

Q: Also need Nc1nc(Nc2cccc(F)c2)nc(-c2noc(C(=O)N[C@@H]3CCOC3)n2)n1 , thanks.
A: 5660

Q: Same question, CN(c1ccccc1)c1nc(N)nc(-c2noc(-c3ccc(NCC(F)(F)F)cn3)n2)n1 this time
A: 731

Q: Note, next up: CN(c1ccccc1)c1nc(N)nc(-c2noc(-c3ccc(CO)nc3)n2)n1
A: 5190

Q: Then what about the compound CN(c1ccccc1)c1nc(N)nc(-c2noc(-c3cccnc3C(=O)OCC3CC3)n2)n1 ?
A: 399

Q: Please do the same for CN(c1ccccc1)c1nc(N)nc(-c2noc(-c3ncccc3C(F)(F)F)n2)n1 as well.
A: 328

Q: Then CN(c1ccccc1)c1nc(N)nc(-c2noc([C@H]3CCCN3CCC(F)(F)F)n2)n1 ?
A: 7180

Q: Input CN(c1ccccc1)c1nc(N)nc(-c2noc(C(=O)N3C[C@@H]4[C@@H](COc5ccccc5)[C@@H]4C3)n2)n1
A: 624

Q: Let us now turn to Nc1nc(Nc2cccc(F)c2)nc(-c2noc(C(=O)NC3CCc4ccccc43)n2)n1 (centres unmarked)
A: 3420

Q: Query CC1CCN(c2nc(-c3nc(N)nc(Nc4cccc(F)c4)n3)no2)CC1 next
A: 3090

Q: Then what about the compound Nc1nc(Nc2ccccc2)nc(-c2noc(-c3ccc(COC4CCC4)nc3)n2)n1 ?
A: 67

Q: Same again, this time with CC(OCc1ccc(-c2nc(-c3nc(N)nc(N(C)c4ccccc4)n3)no2)cn1)C(F)(F)F (centres unmarked)
A: 17

Q: Proceed to CN(c1ccccc1)c1nc(N)nc(-c2noc(-c3ncccc3C(=O)NC3CCC3)n2)n1
A: 7300

Q: Also check CN(c1ccccc1)c1nc(N)nc(-c2noc(C3CCC(Oc4ccccc4)CC3)n2)n1 (centres unmarked)
A: 289

Q: One more compound: CN(c1ccccc1)c1nc(N)nc(-c2noc(-c3ccc(C(=O)NCC(F)(F)F)cn3)n2)n1
A: 2710

Q: What about this compound? COCCOc1cccnc1-c1nc(-c2nc(N)nc(N(C)c3ccccc3)n2)no1
A: 2400

Q: Quick one: CN(c1ccccc1)c1nc(N)nc(-c2noc(-c3ccc(S(C)(=O)=O)cc3)n2)n1
A: 1430

Q: Repeat with COc1ccc(NC(=O)c2nc(-c3nc(N)nc(N(C)c4ccccc4)n3)no2)cn1
A: 1850

Q: // next record Nc1nc(Nc2ccccc2)nc(-c2noc(-c3ccc(CCC(F)(F)F)nc3)n2)n1
A: 150

Q: Next entry: CC(=O)c1ccc(-c2nc(-c3nc(N)nc(N(C)c4ccccc4)n3)no2)nc1
A: 274

Q: Now consider Nc1nc(Nc2ccccc2)nc(-c2noc(N3C[C@@H]4[C@@H](COCC5CC5)[C@@H]4C3)n2)n1 .
A: 884

Q: Quick one: Cc1ncc(-c2nc(-c3nc(N)nc(N(C)c4ccccc4)n3)no2)cn1
A: 9930
